Kindly supply the reported pKi values for the records listed here.
- study.system: σ1 receptor (Cavia porcellus, UniProt Q60492)
- Construct: The membranes were prepared from guinea pig brain (minus cerebellum) as described above; from tissue; host or cells: guinea pig brain (minus cerebellum) membranes
- Sequence (Q60492 whole entry): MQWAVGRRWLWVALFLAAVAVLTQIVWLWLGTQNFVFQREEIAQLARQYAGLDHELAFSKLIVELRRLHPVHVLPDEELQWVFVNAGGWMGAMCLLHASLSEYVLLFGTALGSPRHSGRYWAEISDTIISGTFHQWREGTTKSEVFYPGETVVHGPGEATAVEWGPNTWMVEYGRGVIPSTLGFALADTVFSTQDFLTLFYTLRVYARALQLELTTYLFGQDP
- protocol: σ1 receptor competition binding assay, [3H]-(+)-pentazocine
- Parameters: species or system guinea pig
- experimental.parameters: quantity not named in table head; methods calculate apparent Ki (Cheng-Prusoff); read-out: σ-1
# log scale: pKi equals minus log10 of the concentration in mol/L

Query: Please give the measured pKi for this compound: CCCN(CCCCCCN1CC[S][Re]2(=[O])[S]CC[N]2C(=O)C1)C1CCc2c(cccc2OC)C1 (stereo not drawn)
Reply: 7.19

Query: Please give the measured pKi for this compound: O=C1C[S][Re-]23(=[O])[S]CC[N+]2(CCCCCCN2CCC(c4ccccc4)CC2)CC[N]13 (stereo not drawn)
Reply: 7.53

Query: Please give the measured pKi for this compound: COc1cc2c(cc1OC)CN(CCCCCCN1CC[S][Re]3(=[O])[S]CC[N]3C(=O)C1)CC2 (stereo not drawn)
Reply: 6.17

Query: Please give the measured pKi for this compound: COc1cc2c(cc1OC)CN(CCCCCCN1CC[S][Re]3(=[O])[S]CC[N]3C(=O)C1)C2 (stereo not drawn)
Reply: 5.83

Query: Please give the measured pKi for this compound: O=C1CN(CCCCCCN2Cc3ccccc3C2)CC[S][Re]2(=[O])[S]CC[N]12 (stereo not drawn)
Reply: 7.19

Query: Please give the measured pKi for this compound: C[N+]1(C)CC[N+]2(CCCCCCN3CCC(c4ccccc4)CC3)Cc3ccccc3[O][Re-2]12(=[C]=O)(=[C]=O)=[C]=O (stereo not drawn) [Re-L16b]
Reply: 8.04

----------
- study.system: 5HT1A receptor (Rattus norvegicus)
- Construct: hippocampal homogenates that were prepared from Sprague Dawley rat hippocampus; from tissue; host or cells: rat (Sprague-Dawley) hippocampus membranes
- protocol: 5HT1A receptor competition binding assay, [3H]-8-OH-DPAT, rat hippocampus
measurement.type: Ki (nM)
Response body: numeric value in nM, unit text excluded.

Query: What measured Ki is associated with CCCN(CCCCCC[N+]12CC[S][Re-]13(=[O])[S]CC[N]3C(=O)C2)C1CCc2cccc(OC)c2C1 (stereo not shown) on 5HT1A receptor (Rattus norvegicus)?
Reply: 1.21

----------
- study.system: 5HT1A receptor (Rattus norvegicus)
- Construct: hippocampal homogenates that were prepared from Sprague Dawley rat hippocampus; from tissue; host or cells: rat (Sprague-Dawley) hippocampus membranes
- Sequence (P19327 1-422): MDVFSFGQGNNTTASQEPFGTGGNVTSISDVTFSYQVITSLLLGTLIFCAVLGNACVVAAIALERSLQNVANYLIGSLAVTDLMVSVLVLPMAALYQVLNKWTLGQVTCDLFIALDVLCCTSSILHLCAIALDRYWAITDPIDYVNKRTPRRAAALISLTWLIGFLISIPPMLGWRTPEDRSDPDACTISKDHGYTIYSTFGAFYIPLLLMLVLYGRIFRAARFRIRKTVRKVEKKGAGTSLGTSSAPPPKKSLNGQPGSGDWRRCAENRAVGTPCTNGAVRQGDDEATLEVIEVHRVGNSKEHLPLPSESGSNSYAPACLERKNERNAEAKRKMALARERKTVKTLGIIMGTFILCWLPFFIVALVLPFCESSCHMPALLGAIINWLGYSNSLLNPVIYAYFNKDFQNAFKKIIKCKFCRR
- protocol: 5HT1A receptor competition binding assay, [3H]-8-OH-DPAT, rat hippocampus
- experimental.parameters: quantity not named in table head; methods calculate apparent Ki (Cheng-Prusoff); read-out: 5HT1A
Kindly supply the reported pKi values for the records listed here.
# log scale: pKi equals minus log10 of the concentration in mol/L

Query: Please give the measured pKi for this compound: CCCN(CCCCCCN1CC[S][Re]2(=[O])[S]CC[N]2C(=O)C1)C1CCc2cccc(O)c2C1 (centres unmarked) [Re-45-HO]
Reply: 9.38

Query: Please give the measured pKi for this compound: CCCN(CCCN1CC[S][Re]2(=[O])[S]CC[N]2C(=O)C1)C1CCc2c(cccc2OC)C1 (centres unmarked) [Re-46]
Reply: 7.04

Query: Please give the measured pKi for this compound: COc1ccccc1C1CCN(CCCCCC[N+]23CC[N+](C)(C)[Re-2]2(=[C]=O)(=[C]=O)(=[C]=O)[O]c2ccccc2C3)CC1 (centres unmarked) [Re-L17b]
Reply: 7.74

Query: Please give the measured pKi for this compound: O=[C]=[Re-2]12(=[C]=O)(=[C]=O)[NH2+]CC[N+]1(CCCCCCN1CCC(c3ccccc3)CC1)Cc1ccccc1[O]2 (centres unmarked) [Re-L16a]
Reply: 6.20

Query: Please give the measured pKi for this compound: CCCN(CCCCCCN1CC[S][Re]2(=[O])[S]CC[N]2C(=O)C1)C1CCc2c(O)cccc2C1 (centres unmarked) [Re-47 HO]
Reply: 7.59

Query: Please give the measured pKi for this compound: CCCN(CCCN1CC[S][Re]2(=[O])[S]CC[N]2C(=O)C1)C1CCc2c(O)cccc2C1 (centres unmarked) [Re-46 HO]
Reply: 7.09

Query: Please give the measured pKi for this compound: CCCN(CCCCCCN1CC[S][Re]2(=[O])[S]CC[N]2C(=O)C1)C1CCc2c(cccc2OC)C1 (centres unmarked) [Re-47]
Reply: 7.81

Query: Please give the measured pKi for this compound: COc1cc2c(cc1OC)CN(CCCCCC[N+]13Cc4ccccc4[O][Re-2]1(=[C]=O)(=[C]=O)(=[C]=O)[n+]1ccccc1C3)CC2 (centres unmarked) [Re-L12]
Reply: 6.03

Query: Please give the measured pKi for this compound: COc1ccccc1C1CCN(CCCCCC[N+]23Cc4ccccc4[O][Re-2]2(=[C]=O)(=[C]=O)(=[C]=O)[n+]2ccccc2C3)CC1 (centres unmarked) [Re-L11]
Reply: 6.92

Query: Please give the measured pKi for this compound: C[N+]1(C)CC[N+]2(CCCCCCN3CCC(c4ccccc4)CC3)Cc3ccccc3[O][Re-2]12(=[C]=O)(=[C]=O)=[C]=O (centres unmarked) [Re-L16b]
Reply: 6.36

Query: Please give the measured pKi for this compound: COc1ccccc1C1CCN(CCCCCC[N+]23CC[NH2+][Re-2]2(=[C]=O)(=[C]=O)(=[C]=O)[O]c2ccccc2C3)CC1 (centres unmarked) [Re-L17a]
Reply: 7.32

----------
Kindly supply the reported pKi values for the records listed here.
- study.system: σ2 receptor (Rattus norvegicus, UniProt Q5U3Y7)
- Construct: Rat liver membranes were prepared from male Sprague-Dawley rat livers as previously described; from tissue; host or cells: rat (Sprague-Dawley) liver membranes
- Sequence (Q5U3Y7 whole entry): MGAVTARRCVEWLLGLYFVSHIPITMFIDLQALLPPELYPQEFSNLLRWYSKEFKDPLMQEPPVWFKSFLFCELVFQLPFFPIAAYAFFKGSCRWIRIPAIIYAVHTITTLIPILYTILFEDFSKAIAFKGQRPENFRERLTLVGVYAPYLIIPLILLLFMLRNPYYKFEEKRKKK
- protocol: σ2 receptor competition binding assay, [3H]-DTG, rat liver membranes
# log scale: pKi equals minus log10 of the concentration in mol/L

Query: Please give the measured pKi for this compound: O=C1C[S][Re-]23(=[O])[S]CC[N+]2(CCCCCCCN2CCC(c4ccccc4)CC2)CC[N]13 (stereo not drawn)
Reply: 6.73

Query: Please give the measured pKi for this compound: CCCN(CCCCCC[N+]12CC[S][Re-]13(=[O])[S]CC[N]3C(=O)C2)C1CCc2cccc(OC)c2C1 (stereo not drawn)
Reply: 6.35

Query: Please give the measured pKi for this compound: O=C1C[N+]2(CCCCCCCN3CCC(c4ccccc4)CC3)CC[S][Re-]23(=[O])[S]CC[N]13 (stereo not drawn)
Reply: 7.67

----------
- study.system: 5HT1A receptor (Rattus norvegicus, UniProt P19327)
- Construct: hippocampal homogenates that were prepared from Sprague Dawley rat hippocampus; from tissue; host or cells: rat (Sprague-Dawley) hippocampus membranes
- Sequence (P19327 1-422): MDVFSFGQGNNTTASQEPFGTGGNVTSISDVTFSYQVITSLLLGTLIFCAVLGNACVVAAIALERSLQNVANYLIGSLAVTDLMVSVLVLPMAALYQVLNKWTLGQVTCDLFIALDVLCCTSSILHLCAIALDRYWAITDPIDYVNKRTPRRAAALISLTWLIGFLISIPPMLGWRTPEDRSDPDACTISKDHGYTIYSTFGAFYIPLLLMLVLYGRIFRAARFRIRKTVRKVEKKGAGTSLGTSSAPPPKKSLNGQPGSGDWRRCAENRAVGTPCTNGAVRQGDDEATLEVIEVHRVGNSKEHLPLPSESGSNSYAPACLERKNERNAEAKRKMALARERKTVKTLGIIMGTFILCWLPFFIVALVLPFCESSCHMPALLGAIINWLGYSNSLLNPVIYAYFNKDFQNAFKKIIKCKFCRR
- protocol: 5HT1A receptor competition binding assay, [3H]-8-OH-DPAT, rat hippocampus
- experimental.parameters: Example 62, Re(CO)3-L complexes, [3H]-8-OH-DPAT, rat hippocampal homogenates; read-out: Ki, 5-HT1A receptor affinity
measurement.type: Ki (µM)
Response body: numeric value in µM, unit text excluded.

Query: Please give the measured Ki for this molecule: COc1ccccc1N1CCN(CCC[N+]23Cc4ccccc4[O][Re-5]2([C]#[O+])([C]#[O+])([C]#[O+])[n+]2ccccc2C3)CC1 (stereo not shown)
Reply: 0.0832
